Assay: yeast display, Sf9 membrane polyspecificity reagent, FACS + sequencing; frameworks hold sequencing errors
Experimental readout: polyreactivity (PSR sort gate)

Solved cases (5 shown):
1) QVQLVESGGGLVQAGGSLRVSCAASGSTFYYYAMGGYSQAPGKERELVAAISSRGGSTYYADSVKGRFRISRDNAKNTVYLQMNSLKPEDTAVYYCAASSQRISPDHDYWGQGTQVTVSS : high polyreactivity
2) QVQLVESGGGLVQAGGSLRLSCDASGRTFAGYAMGWYRQAPGKERELVAAITTSGGRTYYADSVKGRFTISRDNAKNTVYLQMNSLKPEDTAVYDCNVASKGRYARYAAEYGSWGQGTQVTVSS : high polyreactivity
3) QVQLVETGGGLVQAGGSLRLSCAASGFIVAEYAMGWYIQAPGKERELVAAITRSGGRTYYADSVKGRFTISRDNAKNTVYLQMNSLKPEDTAVYYCAAGLGYPRLYYWGQGTQVTVSS : high polyreactivity
4) QVQLVESGGGLVQAGGSLRLSCAASGGIFYRYAMGWYRQAPGKERELVAAITRSGANTYYADSVKGRFTISRDNAKNTVYLLMNSLKPEDTAVYYCNARSYLYYSGQYDYWGQGTQVTVSS : high polyreactivity
5) QVQLVESGGGLVHAGGSLRLSCAASGSTFYSNVMGWYRQAPGKERELVAAISRSGGSTYYADSVKGRFTISRDNAKNTVYLQMNSLKAEDTAVYYCNRLRAPVRGDYWGQGTQVTVSS : high polyreactivity

Consider the additional sequence presented here.
// sample QVQLVESGGGLVQAGGSLRLSCAASGSIFTVYAMGWYRPAPGTERELVARISSGAGTTYADSVKGRFTISRDNAKNTVYVQMKSLTPEDTAVYYCAAYTWDTDHYWYGYVPYDYWGQGTQVSVSS , its polyreactivity (PSR sort gate) was low polyreactivity

---

Test: yeast display, Sf9 membrane polyspecificity reagent, FACS + sequencing; frameworks hold sequencing errors
Experimental readout: polyreactivity (PSR sort gate)

1) QVQLVESGGGLVQAGGSLRLSCAASGSTIGFYAMGWYRQAPGKERELVAVISSGDSTYYADSVKGRFTISRDNAKNTVYLQMNSLKPEDTAVYYCAKDALVIDGGGGYDYWGQGTQVTVSS : low polyreactivity
2) QVQLVESGGGLVQAGGSLRLSCAASGFIFGYYAMGWYRQAPGKERELVAAITSGGSTYYADSVKGRFTISRDNAKNTVYLQMNSLKPEDTAVYYCAAGWWYYLHMDYWGQGTQVTVSS : high polyreactivity
3) QVQLVESGGGLVQAGGILRLSCAASGRTFSSNAMGWYRQAPGKERELVAVISSGGSTYYADSVNGRFTISRDNAKNTVYLQLNSLKPEDTAVYYCAAAGGPSGYYYESDYWGQGTQVTVSS : high polyreactivity
4) QVQLVESGGGLVQAGGSLRLSCAASGSTFVYNAMGWYRQAPGKERELVAAITVIGGRTYYADSVKGRFTISRDNAKNTVYLQMNSLKPEDTAVYYCAAVTYWFWPGMDYWGQGTQVTVSS : low polyreactivity
5) QVQLVESGGGLVQAGGSLRLSCAASGSTFGYNAMGWYRQAPGKERELVADITARGGSTYYADSVKGRFTISRANAKNTVYLQMNSLKPEVTAVYYCAARRKRFYYYAGYDYWGQGTQVTVSS : high polyreactivity
6) QVQLVESGGGLVQAGGSLRLSCAASGSIYYTNAMGWYRQAPGKERELVAAIRWSGGRTYYADSVKGRFTISRDNAKNTVYLQMNSLKPEDTAVYYCNKVPRTPIPYKYGYWGQGTQVTVSS : high polyreactivity

// sample QVQIVESGGGLVQAGGSHRLSCADSGRTFGVNTMGWYRQAPAKERQFVAAISSRSGSTYYADSVKGRFTISRDNAKNNVYLQMNSLKPEDTAVDYCAKGPLPRAGVKFDYWGHGTQVTVSS , its polyreactivity (PSR sort gate) was low polyreactivity

This collection of values is drawn from the nanobody polyreactivity screen of Harvey et al. (2022).
